// provenance: patent US20210317201A1

Kindly state IC50, IL-23 stimulated IL-17 production from mouse splenocytes for each of the entries shown.
Biological target: T1, recombinant human IL-23 (human, UniProt P29460 23-328)
T1 sequence 1: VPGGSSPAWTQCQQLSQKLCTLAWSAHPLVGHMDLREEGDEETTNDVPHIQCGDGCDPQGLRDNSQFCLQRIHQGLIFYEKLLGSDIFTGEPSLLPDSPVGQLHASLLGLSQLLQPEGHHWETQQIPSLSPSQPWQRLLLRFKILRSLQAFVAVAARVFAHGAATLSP
T1 sequence 2: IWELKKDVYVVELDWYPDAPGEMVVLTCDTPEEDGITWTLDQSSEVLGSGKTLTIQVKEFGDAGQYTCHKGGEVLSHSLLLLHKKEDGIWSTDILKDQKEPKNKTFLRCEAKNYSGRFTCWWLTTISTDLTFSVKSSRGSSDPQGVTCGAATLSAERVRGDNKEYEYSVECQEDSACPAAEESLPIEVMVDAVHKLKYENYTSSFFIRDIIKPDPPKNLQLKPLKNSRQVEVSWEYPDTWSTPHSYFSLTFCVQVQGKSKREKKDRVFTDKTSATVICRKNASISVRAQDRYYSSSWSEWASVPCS
Assay: cell-based or functional assay
Field format: number, assumed pM, no unit text.

Report IC50, IL-23 stimulated IL-17 production from mouse splenocytes for 26F7 (antibody, V domains shown, Mouse monoclonal antibody from hybridoma; also called 26F7Vk; 26F7VH) VH: EVQLQQSGPELVKPGASVKISCKASGYTFTDYYMNWVRQSHGESLEWIGDFNHNNDVITYNPKFKGKVTLTVEKSSTTAYMELRSLSSEDSAVYYCARGLRGYYAMDYWGQGTSVTVSS VL: DIVLTQSPASLAVSLGQRATISCRASKSVRFSDYFYMHWYQQKPGQPPKLLIYLASNLESGVPARFSGSGSGTDFTLNIHPVEEEDAATYYCQNSRELPYTFGGGTKLEIK please.
27

And then Chimeric 18E5 (antibody, V domains shown) VH: EVQLQQSGPELVKPGAAVKMSCKASGYTFTRYLIHWVKQKPGQGLEWIGYINPYNDGTKYNEKFKGKATLTSDKSSSTAYMELSSLTSEDSAVYYCTSNWDLDYWGQGTTLTVSS VL: DIVMTQSPATLSVTPGDRVSLSCRASQSISDYLYWYQQKSHESPRLLIKFASQSISGIPSRFTGSGSGSDFTLSIDSVEPDDVGVFFCQNGHSFPFTFGGGTKLEIK , what is it?
31

What do you get for Mouse antibody 6B8 (antibody, V domains shown, Mouse monoclonal antibody from hybridoma; also called Mouse 6B8; 6B8Vk) VH: QVQLQQSDAELVKPGTSVKTSCKISGNTFTDQTIHWMKQRPEQGLEWIGYIYPRDDSPKYNENFKGKATLTADKSSSTAYMQLNSLTSEDSAVYFCAIPDRSGYAWFIYWGQGTLVTVSS VL: DIVMTQSHKFLSTSVGDRVTITCKASRDVAIAVAWYQQKPGQSPKLLLFWASTRHTGVPDRFTGSGSRTDFTLTISNVQSEDLADYFCHQYSSYPFTFGSGTKLEIK ?
13

Same for 34D9 (antibody, V domains shown, Mouse monoclonal antibody from hybridoma; also called 34D9Vk; 34D9VH7) VH: EVQLQQSGPELVKPGASVKIPCKASGYTFTDYNMDWVKKSHGKSLEWIGDINPHNGGTIYNQKFKGKATLTVDKSSSTAHMELRSLTSEDTAVYYCARNYYGSSYGWYFDVWGTGTTVTVSS VL: DIMMTQSHKFMSTSVGDRVSITCKASQDVGNAVVWYQQKPGQSPKLLIYWASTRHIGVPDRFTGSGSGTDFTLTITNVQSEDLADYFCQQYSSYLTFGAGTKLELK
510

Also need 15C11 (antibody, V domains shown, Mouse monoclonal antibody from hybridoma; also called 15C11vk; 15C11vh) VH: EVQLQQSGPVLVKPGASVKMSCKASGYTFTDYYMNWVKQSHGKSLEWIGVIIPYNGGTSYNQKFKGKATLTVDKSSSTAYMELNSLTSEDSAVYYCARDGHRWYFDVWGTGTTVTVSS VL: DVVMTQTPLSLPVSLGDQASISCRSSQSLVHSNGNTYLHWYLQKPGQSPKLLIYKVSNRFSGVPDRFSGSGSGTDFTLKINRVEAEDLGVYFCSQSTHVPYTFGGGTQLEIK , thanks.
126

One more binder: Chimeric 24A5 (antibody, V domains shown) VH: EVQLQQSGPELVKPGASVKMSCKASGYTFTTSIMHWVKQKPGQGLEWIGYINPYDDVTKYNEKFKGKATLTSDKSSSTAYMELSSLTSEDSAVYYCVRRWDEAYWGQGTLVTVSA VL: DIVMTQSPATLSVTPGNRVSLSCRASQSISDYLHWYQQKSHESPRLLIKYASQSISGIPSRFSGSGSGSNFTLSINSVEPEDVGVYYCQNGHSFPFTFGSGTKLEIK
404

// next record Chimeric 22E2 (antibody, V domains shown) VH: EVQLQQSGPELVKPGASVKMSCKASGYTFTSSIIHWVKQRPGQGLEWIGYINPYDDVTKYNEKFKGKATLTSDKSSSTAYMELSSLTSEDSAVYYCARRWDESYWGQGTLVTVSA VL: DIVMTQSPATLSVTPGDRVSLSCRASQSISVYLHWYQQKSPESPRLLIKYASQSISGIPSRFSGSGSGSDFTLSINSVEPEDVGVYYCQNGHSFPFTFGSGTKLEIK
100

Same thing, different binder: 31H9 (antibody, V domains shown, Mouse monoclonal antibody from hybridoma; also called 31H9vk; 31H9vh) VH: EVQLQQSGPELVKPGASVKMSCKASGYTFTRYLMHWVKQKPGQGLEWIGYINPYNDGTNYNEKFKGKATLTSDKSSSTAYMELSSLTSEDSAVYYCSLNWDYAYWGQGTLVTVSA VL: DIVMTQSPATLSVTPGDRVSLSCRASQSISDYLHWYQQKSHESPRLLIKYASQSISGIPSRFSGSGSGSDFTLSINSVEPEDVGVYYCQNGHSFPYTFGGGTKLEIK
960

Also 34G3 (antibody, V domains shown, Mouse monoclonal antibody from hybridoma; also called 34G3Vk; 34G3VH) VH: EFQLQQSGPELVKPGASVKISCKASGYSFTDYNMNWVKQSKGKSLEWIGVIIPNYGFTSYNQNFKGKATLTVDQSSSTAHMQLNSVTSEDSAVYYCVRDGGILLWYLDVWGTGTTVTVSS VL: DVVMTQTPLSLPVSLGDQASISCRSSQSLVHSNGNTYLHWYLQKPGQSPKLLIYKVSNRFSGVPDRFSGSGSGTDFTLKISRVEAEDLGVYFCSQSTHVPYTFGGGTKLEIN , if possible.
336

Also check 74H3 (antibody, V domains shown, Mouse monoclonal antibody from hybridoma; also called 74H3Vk; 74H3VH) VH: EVQLQQSGPELVKPGASVKMSCKASGYTFTRYLMHWVKQKPGQGLEWIGYINPYNDGTKYNERFKGKATLTSDKSSSTAYMELSSLTSEDSAVYYCARNWDVPYWGQGTLVTVSA VL: DIQMTQSPASLSASVGETVIFTCRASENIDSYLAWYQQKQGKSPQLLVYAATNLADGVPSRFSGSGSGTQYSLKINSLQSEDVARYYCLHYYSTPFTFGSGTELEIK
1350
